Biological target: T1, integrin αvβ6 (human, UniProt P06756)
T1 chain 1: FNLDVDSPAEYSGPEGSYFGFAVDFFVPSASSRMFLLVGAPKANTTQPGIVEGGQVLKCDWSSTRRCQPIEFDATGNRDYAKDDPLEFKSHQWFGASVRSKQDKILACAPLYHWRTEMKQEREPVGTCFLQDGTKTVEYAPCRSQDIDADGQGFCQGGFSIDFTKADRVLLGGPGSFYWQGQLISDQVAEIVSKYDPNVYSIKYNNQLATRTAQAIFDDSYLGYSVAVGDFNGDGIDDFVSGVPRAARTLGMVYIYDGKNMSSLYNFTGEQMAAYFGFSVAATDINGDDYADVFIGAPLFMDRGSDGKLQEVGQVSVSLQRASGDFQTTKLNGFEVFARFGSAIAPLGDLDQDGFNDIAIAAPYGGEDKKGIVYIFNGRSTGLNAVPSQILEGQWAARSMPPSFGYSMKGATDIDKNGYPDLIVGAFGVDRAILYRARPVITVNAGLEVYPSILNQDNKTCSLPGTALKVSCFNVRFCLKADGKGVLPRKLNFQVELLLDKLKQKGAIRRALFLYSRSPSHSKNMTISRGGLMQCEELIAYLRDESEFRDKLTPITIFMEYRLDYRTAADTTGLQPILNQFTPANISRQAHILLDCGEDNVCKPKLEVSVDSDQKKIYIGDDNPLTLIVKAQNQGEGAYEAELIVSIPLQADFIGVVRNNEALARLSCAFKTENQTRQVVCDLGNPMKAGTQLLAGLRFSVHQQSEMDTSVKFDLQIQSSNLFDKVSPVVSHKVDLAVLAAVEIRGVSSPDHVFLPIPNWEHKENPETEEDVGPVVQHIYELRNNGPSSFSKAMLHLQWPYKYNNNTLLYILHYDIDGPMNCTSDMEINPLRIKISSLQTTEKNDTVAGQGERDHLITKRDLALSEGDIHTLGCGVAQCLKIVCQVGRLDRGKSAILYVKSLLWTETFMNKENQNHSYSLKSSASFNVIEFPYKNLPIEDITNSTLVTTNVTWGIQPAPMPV
T1 chain 2: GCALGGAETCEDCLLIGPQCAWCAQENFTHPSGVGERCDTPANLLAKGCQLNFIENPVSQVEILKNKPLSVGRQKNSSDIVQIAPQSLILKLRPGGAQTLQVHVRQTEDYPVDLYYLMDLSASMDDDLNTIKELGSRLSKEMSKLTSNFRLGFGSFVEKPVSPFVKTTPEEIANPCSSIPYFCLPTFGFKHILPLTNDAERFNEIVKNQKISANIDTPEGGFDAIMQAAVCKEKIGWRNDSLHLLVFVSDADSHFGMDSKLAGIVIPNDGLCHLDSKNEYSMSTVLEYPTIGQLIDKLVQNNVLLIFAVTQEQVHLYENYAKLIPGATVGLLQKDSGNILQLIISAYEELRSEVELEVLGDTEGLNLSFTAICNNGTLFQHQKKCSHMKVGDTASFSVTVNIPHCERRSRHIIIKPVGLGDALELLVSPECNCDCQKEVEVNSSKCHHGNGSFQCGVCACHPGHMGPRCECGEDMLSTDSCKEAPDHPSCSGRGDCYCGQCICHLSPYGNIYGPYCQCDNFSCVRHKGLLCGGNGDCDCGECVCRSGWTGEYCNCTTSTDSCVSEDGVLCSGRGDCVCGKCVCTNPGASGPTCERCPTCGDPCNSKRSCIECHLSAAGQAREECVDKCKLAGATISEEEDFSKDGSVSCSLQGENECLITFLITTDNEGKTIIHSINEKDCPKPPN
Assay: competition
[ ]: non-standard residue; d: D form. Pro‑4‑NH‑hexyne = not defined here; dNMeF = CN[C@H](Cc1ccccc1)C(=O)O
# note: exactly 100 nM is not below, so it is condition not met; use condition met for IC50 strictly under it

# count of solved cases: 6
cyclo(RGDL[dP][Pro‑4‑NH‑hexyne]GL) (reading uncertain) [Compound 12 (Table 1)]
condition not met
cyclo(RGDL[dP]PSL) (SMILES CC(C)C[C@@H]1NC(=O)[C@H](CO)NC(=O)[C@@H]2CCCN2C(=O)[C@H]2CCCN2C(=O)[C@H](CC(C)C)NC(=O)[C@H](CC(=O)O)NC(=O)CNC(=O)[C@H](CCCNC(=N)N)NC1=O) [Compound 3]
condition not met
cyclo(RGDL[dP]PAF) [Compound 13 (Table 1)]
condition met
cyclo(RGDL[dP]PAA) (SMILES CC(C)C[C@@H]1NC(=O)[C@H](CC(=O)O)NC(=O)CNC(=O)[C@H](CCCNC(=N)N)NC(=O)[C@H](C)NC(=O)[C@H](C)NC(=O)[C@@H]2CCCN2C(=O)[C@H]2CCCN2C1=O) [Compound 10 (Table 1)]
condition not met
cyclo(RGDL[dP]PGL) [Compound 2]
condition not met
cyclo(RGDL[dP]PAL) (SMILES CC(C)C[C@@H]1NC(=O)[C@H](C)NC(=O)[C@@H]2CCCN2C(=O)[C@H]2CCCN2C(=O)[C@H](CC(C)C)NC(=O)[C@H](CC(=O)O)NC(=O)CNC(=O)[C@H](CCCNC(=N)N)NC1=O) [Compound 1]
condition met

Ask: Just wondering, is IC50 of cyclo(RGDL[dNMeF]PAL) (SMILES CC(C)C[C@@H]1NC(=O)[C@H](C)NC(=O)[C@@H]2CCCN2C(=O)[C@@H](Cc2ccccc2)N(C)C(=O)[C@H](CC(C)C)NC(=O)[C@H](CC(=O)O)NC(=O)CNC(=O)[C@H](CCCNC(=N)N)NC1=O) [Compound 6] below 100 nM?
Reply: condition not met
